- procedure text: qHTS Assay for NPC1 Promoter Activators: Hit Validation Using Renila Luciferase Read-Out for NPC1
- condition: Huh7 NPC1 promoter-luciferase reporter, luminescence, 24 h; series mostly up to 76.9 µM
Records with an inconclusive call do not appear. The source made the active and inactive calls. Calls come from the whole dose curve; as a rule, active = well fitted activation curve with a large enough effect; inconclusive = small, poorly fitted or top-dose-only effect; inactive = no such curve, though single readings can be large or run the other way.
Parameter call: string, one of active, inactive

[Q] Could you check what this test reported for Cc1ccc(NC(=O)COC(=O)C2C3CC4OC(=O)C2C4C3)cc1Cl (stereo unspecified) ?
[A] inactive

[Q] Record: Cc1cc(C)c2c(N)c(C(=O)Nc3ccc([N+](=O)[O-])cc3)sc2n1
[A] inactive

[Q] Record: COc1cccc(C(C(=O)NC2CCCC2)N(CCC(C)C)C(=O)CCC(=O)Nc2cc(C)on2)c1 (stereo unspecified)
[A] inactive

[Q] Record: COc1ccccc1NC(=S)NCc1ccc(Cl)cc1
[A] inactive

[Q] Record: Cc1nnc2n(c1=O)N=C(c1ccc(Cl)cc1)CS2
[A] inactive

[Q] Record: Cc1ccc(S(=O)(=O)/N=C2\C=C(Nc3cccc(C(=O)O)c3)C(=O)c3ccccc32)cc1
[A] inactive

[Q] Record: CCCc1cc(C(=O)Nc2ccccc2SC)no1
[A] inactive

[Q] Record: CC1(C)CC(=O)c2c(O)c(-c3ccccc3)c(=O)n(-c3ccccc3)c2C1
[A] inactive

[Q] Record: CC1CC(C)CN(CC(=O)N2CCOCC2)C1 (stereo unspecified)
[A] inactive

[Q] Record: NNC(=O)c1cccc(S(=O)(=O)Nc2cc(Cl)ccc2Cl)c1
[A] inactive

[Q] Record: Cc1ccc(NC(=O)NC(=O)c2ccccc2)cc1F
[A] inactive

[Q] Record: FC(F)(F)c1ccc(Nc2nnnc3ccccc23)cc1
[A] inactive

[Q] Record: Cc1ccccc1NC(=O)CSc1ccc(-c2cccnc2)nn1
[A] inactive

[Q] Record: O=C(CCc1cccc(Cl)c1)NC1CCCN(Cc2ccccc2F)C1 (stereo unspecified)
[A] inactive

[Q] Record: O=C(NCCSCc1c(F)cccc1Cl)c1ccc(CN2CCOCC2)cc1
[A] inactive

[Q] Record: COC(=O)c1ccc(NC(=O)c2ccc3nc(C)sc3c2)cc1
[A] inactive

[Q] Record: CN(C)C(=O)[C@H]1C[C@H]1[C@@H](O)[C@H](CO)NC(=O)[C@H](COCc1ccccc1)NC(=O)OC(C)(C)C
[A] inactive

[Q] Record: C=CCn1c(C)nnc1SCC(=O)Nc1nccs1
[A] inactive

[Q] Record: COC(=O)c1ccccc1NC(=O)c1ccc(-c2ccc(Br)cc2)o1
[A] inactive

[Q] Record: COc1ccc(S(=O)(=O)NC(C(=O)NCCc2ccccn2)C(C)C)cc1 (stereo unspecified)
[A] inactive

[Q] Record: COc1ccc(-c2csc(Nc3ncccn3)n2)cc1C
[A] inactive

[Q] Record: COc1ccc(-c2cc(C(=O)Nc3ccccc3F)on2)cc1
[A] inactive

[Q] Record: CCOC(=O)CSc1nc2cc3c(cc2cc1C#N)OCO3
[A] inactive

[Q] Record: CCOC(=O)c1ccccc1NC(=O)CSc1nnc(Cc2cccn2C)n1-c1ccc(F)cc1
[A] active

[Q] Record: CCOC(=O)c1csc(COc2ccc(OC)cc2)n1
[A] inactive

[Q] Record: CC(=O)c1cccc(NC(=O)N2CCOCC2)c1
[A] inactive

[Q] Record: CCN(CC(=O)N(CC(C)C)c1c(N)n(CC(C)C)c(=O)[nH]c1=O)Cc1nc2ccccc2c(=O)[nH]1
[A] inactive

[Q] Record: COc1ccc(NC(=S)NNC(=O)c2cccs2)cc1
[A] inactive

[Q] Record: O=C(C[N+]1(CC#Cc2ccccc2)CCCCC1)c1ccccc1
[A] inactive

[Q] Record: Cc1nc2sc(C(=O)OC(C)C)c(N)c2c(C)c1C
[A] inactive

[Q] Record: Cc1ccc(C#N)c(SCC(=O)Nc2nccs2)n1
[A] inactive

[Q] Record: CCOc1cc(C2C(C#N)=C(N)Oc3n[nH]c(C)c32)ccc1OCCN1CCOCC1 (stereo unspecified)
[A] inactive

[Q] Record: COC(=O)c1cn(NC(=O)C2CCCCC2)c(=O)c2ccccc12
[A] inactive

[Q] Record: COc1ccc(NC(=O)CSc2ccc([N+](=O)[O-])cc2)cc1S(=O)(=O)N1CCOCC1
[A] inactive

[Q] Record: CC1CCc2sc(C(=O)NNC(=S)NC3CC3)cc2C1 (stereo unspecified)
[A] inactive

[Q] Record: CC(C)(C)C(=O)NC(=S)Nc1ccccc1F
[A] inactive

[Q] Record: CCCCn1c(Nc2ccc(OC)cc2)nc2ccccc21
[A] inactive

[Q] Record: NC(=O)COC(=O)c1ccc2noc(-c3ccccc3)c2c1
[A] inactive

[Q] Record: O=C(CSc1nnc(-c2csc3c2CCCC3)o1)Nc1ccccc1
[A] inactive

[Q] Record: COc1ccccc1N(C(=O)c1snc(C(N)=O)c1N)C(C(=O)NC1CCCCC1)c1cccc(OC)c1OC (stereo unspecified)
[A] active

[Q] Record: Nc1ccc(C(=O)Nc2ccccc2N)cc1
[A] active

[Q] Record: Cc1nc(-c2ccc(S(=O)(=O)Oc3ccc(Cl)cc3Cl)s2)cs1
[A] inactive

[Q] Record: CC(C)(C)NC(=S)NNC(=O)c1ccc2ncccc2c1
[A] inactive

[Q] Record: O=CN1CCN(C(=O)c2ccccc2Cl)CC1
[A] inactive

[Q] Record: Cc1cccc(C)c1NC(=O)Nc1cccs1
[A] inactive

[Q] Record: O=C(CCCN1C(=O)C(c2ccccc2)Oc2cccnc21)Nc1ccccc1Cl (stereo unspecified)
[A] inactive
